target: Calf primase of pol α (Bos taurus, UniProt A0A3Q1MF00)
Sequence (A0AAA9THK8 entry or part of it): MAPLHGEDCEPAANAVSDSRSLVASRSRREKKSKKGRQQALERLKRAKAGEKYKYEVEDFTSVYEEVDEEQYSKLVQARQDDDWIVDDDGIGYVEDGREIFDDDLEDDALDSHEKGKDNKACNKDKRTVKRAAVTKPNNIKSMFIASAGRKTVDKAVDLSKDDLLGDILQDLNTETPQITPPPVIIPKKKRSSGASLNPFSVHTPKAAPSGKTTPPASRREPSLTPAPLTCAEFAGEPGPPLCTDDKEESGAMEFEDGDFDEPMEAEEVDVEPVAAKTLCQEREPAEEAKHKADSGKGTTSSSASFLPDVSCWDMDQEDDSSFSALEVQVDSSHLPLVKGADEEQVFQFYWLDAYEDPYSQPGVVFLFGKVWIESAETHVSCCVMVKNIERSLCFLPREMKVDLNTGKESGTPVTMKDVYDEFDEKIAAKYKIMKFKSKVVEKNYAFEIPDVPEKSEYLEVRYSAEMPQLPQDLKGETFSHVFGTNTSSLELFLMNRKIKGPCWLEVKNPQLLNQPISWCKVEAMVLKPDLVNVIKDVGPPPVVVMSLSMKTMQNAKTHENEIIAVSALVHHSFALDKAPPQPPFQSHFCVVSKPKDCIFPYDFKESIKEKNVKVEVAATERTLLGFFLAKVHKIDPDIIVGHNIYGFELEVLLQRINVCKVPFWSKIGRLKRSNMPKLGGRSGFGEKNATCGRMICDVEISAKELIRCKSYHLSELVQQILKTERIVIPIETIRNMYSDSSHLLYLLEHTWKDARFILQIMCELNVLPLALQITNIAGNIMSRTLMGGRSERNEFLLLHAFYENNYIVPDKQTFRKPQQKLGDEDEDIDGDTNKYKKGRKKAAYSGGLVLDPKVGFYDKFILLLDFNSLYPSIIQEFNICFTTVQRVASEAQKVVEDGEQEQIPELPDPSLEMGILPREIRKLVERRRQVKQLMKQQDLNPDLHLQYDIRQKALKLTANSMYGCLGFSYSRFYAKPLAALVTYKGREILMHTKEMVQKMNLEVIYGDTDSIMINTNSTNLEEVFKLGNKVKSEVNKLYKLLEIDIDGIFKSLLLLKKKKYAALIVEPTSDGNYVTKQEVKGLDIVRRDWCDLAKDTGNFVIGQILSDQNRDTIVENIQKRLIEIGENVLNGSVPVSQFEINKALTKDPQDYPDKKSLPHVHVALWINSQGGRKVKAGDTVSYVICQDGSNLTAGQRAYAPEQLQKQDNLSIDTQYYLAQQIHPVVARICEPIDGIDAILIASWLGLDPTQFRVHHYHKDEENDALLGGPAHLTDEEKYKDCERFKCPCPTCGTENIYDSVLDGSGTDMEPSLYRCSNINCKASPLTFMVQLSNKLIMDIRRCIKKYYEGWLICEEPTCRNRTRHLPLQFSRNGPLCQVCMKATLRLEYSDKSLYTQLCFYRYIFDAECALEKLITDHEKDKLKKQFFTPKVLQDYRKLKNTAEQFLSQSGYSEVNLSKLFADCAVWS
Sequence (A0JNF4 entry or part of it, further chain): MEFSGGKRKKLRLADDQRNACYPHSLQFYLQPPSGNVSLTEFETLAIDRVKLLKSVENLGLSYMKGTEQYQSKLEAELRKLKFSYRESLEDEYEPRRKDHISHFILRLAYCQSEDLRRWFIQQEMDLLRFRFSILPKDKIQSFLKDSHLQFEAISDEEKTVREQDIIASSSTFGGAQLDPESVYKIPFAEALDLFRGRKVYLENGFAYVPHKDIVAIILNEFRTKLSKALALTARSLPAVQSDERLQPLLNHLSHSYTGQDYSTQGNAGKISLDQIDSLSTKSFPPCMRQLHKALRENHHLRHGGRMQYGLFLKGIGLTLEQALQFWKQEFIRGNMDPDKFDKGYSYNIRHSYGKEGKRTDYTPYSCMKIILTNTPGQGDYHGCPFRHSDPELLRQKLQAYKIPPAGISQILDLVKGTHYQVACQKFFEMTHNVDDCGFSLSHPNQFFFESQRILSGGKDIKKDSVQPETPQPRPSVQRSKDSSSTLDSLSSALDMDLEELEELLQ
Sequence (A0A3Q1MF00 entry or part of it): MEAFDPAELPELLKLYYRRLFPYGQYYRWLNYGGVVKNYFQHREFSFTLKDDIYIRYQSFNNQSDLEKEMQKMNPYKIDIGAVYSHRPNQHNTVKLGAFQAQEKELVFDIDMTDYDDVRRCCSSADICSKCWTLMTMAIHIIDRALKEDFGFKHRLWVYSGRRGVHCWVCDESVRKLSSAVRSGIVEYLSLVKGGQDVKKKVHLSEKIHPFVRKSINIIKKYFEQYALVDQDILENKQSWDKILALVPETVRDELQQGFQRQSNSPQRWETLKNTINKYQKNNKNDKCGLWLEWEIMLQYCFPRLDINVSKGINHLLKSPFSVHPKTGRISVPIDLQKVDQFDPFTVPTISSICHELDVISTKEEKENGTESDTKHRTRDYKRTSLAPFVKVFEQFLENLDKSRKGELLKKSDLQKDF
Sequence (Q58D13 whole entry, further chain): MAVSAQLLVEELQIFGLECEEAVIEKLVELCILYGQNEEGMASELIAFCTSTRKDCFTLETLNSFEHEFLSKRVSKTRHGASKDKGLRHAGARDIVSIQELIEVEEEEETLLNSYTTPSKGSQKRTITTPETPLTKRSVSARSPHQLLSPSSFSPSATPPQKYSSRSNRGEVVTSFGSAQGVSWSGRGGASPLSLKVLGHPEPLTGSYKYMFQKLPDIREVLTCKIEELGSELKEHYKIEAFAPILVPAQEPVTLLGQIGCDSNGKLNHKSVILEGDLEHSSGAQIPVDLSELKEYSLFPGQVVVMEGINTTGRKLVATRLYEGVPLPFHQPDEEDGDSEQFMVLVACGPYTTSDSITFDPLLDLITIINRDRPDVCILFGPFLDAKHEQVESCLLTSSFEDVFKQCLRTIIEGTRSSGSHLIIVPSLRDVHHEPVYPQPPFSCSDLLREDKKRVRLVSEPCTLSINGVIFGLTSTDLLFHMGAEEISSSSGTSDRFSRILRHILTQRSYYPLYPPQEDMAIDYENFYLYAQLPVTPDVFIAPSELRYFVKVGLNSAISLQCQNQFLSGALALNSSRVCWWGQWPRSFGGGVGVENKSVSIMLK

>  <chemical_smiles>
CCCCCCCC/C=C\CCCCCCCC(=O)Oc1cccc2c1C(=O)C=C(C)C2=O

>  <IC50>
> 100 µM

$$$$

====

molecular target: mammalian pols; test: DNA polymerase activity inhibition, summary over the panel; assay type: biochemical; settings: B family of pols; read-out: 50% inhibition dose
pIC50: −log10 of the molar value.

>  <compound>
CCCCCCCC/C=C\CCCCCCCC(=O)Oc1cccc2c1C(=O)C=C(C)C2=O [2f, 5-O-oleoyl-2-methyl-1,4-naphthoquinone]

>  <pIC50>
5.28 to 5.32

$$$$
